- target system: opioid μ receptor (Homo sapiens)
- Construct: expressed in transfected cells; host or cells: CHO cells
- Sequence (P35372 whole entry): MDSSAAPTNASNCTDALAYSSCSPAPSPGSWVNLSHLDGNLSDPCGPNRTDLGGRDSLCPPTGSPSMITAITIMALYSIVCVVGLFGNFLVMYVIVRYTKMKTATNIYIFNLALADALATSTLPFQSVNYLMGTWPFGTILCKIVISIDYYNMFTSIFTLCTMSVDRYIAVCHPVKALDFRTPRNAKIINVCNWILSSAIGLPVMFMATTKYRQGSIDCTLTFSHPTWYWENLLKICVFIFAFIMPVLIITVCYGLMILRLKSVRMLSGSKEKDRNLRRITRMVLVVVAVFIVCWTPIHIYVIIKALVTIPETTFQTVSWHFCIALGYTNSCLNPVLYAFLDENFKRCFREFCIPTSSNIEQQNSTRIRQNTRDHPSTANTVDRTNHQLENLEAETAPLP
- protocol text: Opioid receptor functional test (Lance Ultra cAMP Kit), μ receptor agonist activity
- Type: cell-based
- test settings: maximum concentration (10 μM), reaction did not reach the maximum, EC50 N.C.; relative to DAMGO; hydrochloride was used; read-out: μ Receptor responce rate at the maximum concentration (reference value)
endpoint name: Emax at 10 µM (%)

>>> reported_measurement("Oc1ccc2c(c1)C13CCN(CC4CC4)C(C2)C12CCC1C3[C@@H](CN1c1nc(-c3ccccc3)cs1)C2 (stereo partly drawn)")
9.2
>>> reported_measurement("C[C@H]1[C@H]2C[C@@]34CC[C@H]([C@@H]2[C@]32CCN(CC3CC3)[C@@H]4Cc3ccc(O)cc32)N1C(=O)c1ccccc1")
2.9
>>> reported_measurement("NC(=O)c1ccc2c(c1)[C@]13CCN(CC4CC4)[C@H](C2)[C@]12CCC1C3[C@@H](CN1C(=O)c1ccccc1)O2 (stereo partly drawn)")
2.8

====

- target system: opioid δ receptor (Homo sapiens, UniProt P41143)
- Construct: expressed in transfected cells; host or cells: CHO cells
- Sequence (P41143 whole entry): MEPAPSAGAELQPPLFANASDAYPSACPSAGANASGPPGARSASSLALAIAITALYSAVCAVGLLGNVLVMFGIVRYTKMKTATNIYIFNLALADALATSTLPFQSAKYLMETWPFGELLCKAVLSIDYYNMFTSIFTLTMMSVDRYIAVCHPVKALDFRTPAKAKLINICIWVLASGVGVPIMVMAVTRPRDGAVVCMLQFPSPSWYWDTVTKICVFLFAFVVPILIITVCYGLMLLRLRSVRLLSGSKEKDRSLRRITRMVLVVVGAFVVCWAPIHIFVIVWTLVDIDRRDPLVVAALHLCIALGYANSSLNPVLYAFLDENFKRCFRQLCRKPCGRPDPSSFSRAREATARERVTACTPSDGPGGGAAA
- protocol text: Opioid receptor functional test (Lance Ultra cAMP Kit), δ receptor agonist activity
- Assay type: cell-based
- test settings: CHO cells expressing δ opioid receptor, 10 μM forskolin, cAMP; hydrochloride was used; read-out: δ Receptor EC50 value
endpoint name: EC50

>>> reported_measurement("C[C@H]1[C@H]2C[C@@]34CC[C@H]([C@@H]2[C@]32CCN(CC3CC3)[C@@H]4Cc3ccc(O)cc32)N1C(=O)c1ccccc1 [Compound 334]")
"< 1 nM"
>>> reported_measurement("O=C(c1cccc(Cl)c1)N1C[C@H]2C[C@@]34CC[C@@H]1[C@@H]2[C@@]31CCN(CC2CC2)[C@@H]4Cc2ccc(O)cc21 [Compound 79]")
"< 1 nM"
>>> reported_measurement("COc1ccc2c(c1)[C@]13CCN(CC4CC4)[C@H](C2)[C@]12CCC1C3[C@@H](CN1c1nc(C)cc(C)n1)C2 (stereo partly shown) [Compound 222]")
"< 10 nM"
>>> reported_measurement("Oc1ccc2c(c1)[C@]13CCN(CC4CC4)[C@H](C2)[C@]12CC[C@@H]1[C@H]3[C@@H](CN1c1ccccc1)O2 [Compound 31]")
"< 10 nM"
>>> reported_measurement("CCCN1CC[C@@]23c4cc(O)ccc4C[C@@H]1[C@]21CC[C@@H]2[C@H]3[C@@H](CN2C(=O)c2ccccc2)C1 [Compound 83]")
"< 1 nM"
>>> reported_measurement("Cc1cc(C)nc(N2C[C@H]3CC45CCC2C3C42CCN(CC(F)(F)c3ccccc3)C5Cc3ccc(O)cc32)n1 (stereo partly shown) [Compound 283]")
"< 50 nM"
>>> reported_measurement("O=C(c1ccccc1)N1C[C@H]2C[C@@]34CC[C@@H]1[C@@H]2[C@@]31CCN(CCF)[C@@H]4Cc2ccc(O)cc21 [Compound 84]")
"< 10 nM"
>>> reported_measurement("Cc1cc(C)nc(N2C[C@H]3CC45CCC2C3C42CCN(CC3CC3)C5Cc3ccccc32)n1 (stereo partly shown) [Compound 300]")
"< 50 nM"
>>> reported_measurement("O=C(c1ccco1)N1C[C@H]2O[C@@]34CC[C@@H]1[C@@H]2[C@@]31CCN(CC2CC2)[C@@H]4Cc2ccc(O)cc21 [Compound 50]")
"< 1 nM"
>>> reported_measurement("Oc1ccc2c(c1)C13CCN(CC4CC4)C(C2)C12CCC1C3[C@@H](CN1c1nccs1)C2 (stereo partly shown) [Compound 241]")
"< 10 nM"
>>> reported_measurement("CC(C)N(Cc1ccccc1)C(=O)N1C[C@H]2C[C@@]34CCC1C2[C@@]31CCN(CC2CC2)[C@@H]4Cc2ccc(O)cc21 (stereo partly shown) [Compound 155]")
"< 1 nM"
>>> reported_measurement("Oc1ccc2c(c1)C13C(O)CN(CC4CC4)C(C2)C12CCC1C3[C@@H](CN1Cc1ccccc1)O2 (stereo partly shown) [Compound 329]")
"< 1 nM"
>>> reported_measurement("Nc1ccc2c(c1)[C@]13CCN(CC4CC4)[C@H](C2)[C@]12CCC1C3[C@@H](CN1C(=O)c1ccccc1)O2 (stereo partly shown) [Compound 308]")
"< 10 nM"

// provenance: patent US8952030B2
